Sequence of the target: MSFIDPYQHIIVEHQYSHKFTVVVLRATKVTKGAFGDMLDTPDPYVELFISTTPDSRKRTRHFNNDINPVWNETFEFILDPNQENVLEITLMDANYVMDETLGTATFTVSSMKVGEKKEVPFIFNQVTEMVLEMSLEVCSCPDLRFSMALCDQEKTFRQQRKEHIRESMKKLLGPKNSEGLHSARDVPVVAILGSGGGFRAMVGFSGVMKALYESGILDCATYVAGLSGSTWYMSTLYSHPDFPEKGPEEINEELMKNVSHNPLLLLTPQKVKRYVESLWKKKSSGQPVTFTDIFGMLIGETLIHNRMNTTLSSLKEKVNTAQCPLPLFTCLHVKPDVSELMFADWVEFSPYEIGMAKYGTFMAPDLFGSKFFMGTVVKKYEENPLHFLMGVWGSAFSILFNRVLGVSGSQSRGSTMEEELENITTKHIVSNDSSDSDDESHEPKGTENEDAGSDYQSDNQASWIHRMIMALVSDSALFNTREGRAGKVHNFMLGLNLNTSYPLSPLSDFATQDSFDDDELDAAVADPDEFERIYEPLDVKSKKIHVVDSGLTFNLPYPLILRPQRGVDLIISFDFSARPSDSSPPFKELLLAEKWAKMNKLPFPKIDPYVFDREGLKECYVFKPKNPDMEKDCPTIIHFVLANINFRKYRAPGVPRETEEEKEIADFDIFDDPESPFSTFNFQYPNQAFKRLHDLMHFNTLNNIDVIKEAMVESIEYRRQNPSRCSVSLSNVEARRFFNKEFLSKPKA
reported-property: IC50 (µM)
All answers are understood in µM, so give the number only.

Illustrative cases are given below, each with its answer.
[
  {
    "given-smiles": "CC(C)(C)c1ccc(S(=O)(=O)N2C[C@@H](SCc3ccccc3)C[C@H]2C(=O)Nc2ccc(/C=C3\\SC(=S)NC3=O)cc2)cc1",
    "reported-property": "IC50",
    "meas-value": 6.2
  },
  {
    "given-smiles": "O=C1NC(=S)S/C1=C\\c1ccc(NC(=O)[C@@H]2C[C@H](SCc3ccccc3)CN2S(=O)(=O)c2ccc(N=Nc3ccccc3)cc2)cc1",
    "reported-property": "IC50",
    "meas-value": 4.7
  },
  {
    "given-smiles": "CN(C)c1cccc2c(S(=O)(=O)N3C[C@@H](SCc4ccccc4)C[C@H]3C(=O)Nc3ccc(/C=C4\\SC(=S)NC4=O)cc3)cccc12",
    "reported-property": "IC50",
    "meas-value": 5.6
  }
]

// moving on: another record for IC50
Fill in the blank: the reported IC50 of `COc1cc(CS[C@H]2C[C@@H](C(=O)Nc3ccc(C=C4SC(=O)NC4=O)cc3)N(C(=O)c3ccccc3)C2)cc(OC)c1OC` is ____.
5.1
